- Test Target: Glutamate receptor ionotropic, AMPA (Rattus norvegicus, UniProt P19490+P19491+P19492+P19493)
- Method: In vitro inhibition of [3H]CNQX binding to Ionotropic glutamate receptor AMPA.
- Format: protein-complex assay
Hi! Just check whether IC50 is below 20 µM. Below gives t, equal or above gives f.

| Compound | Discrete Label |
| --- | --- |
| NC(Cc1c(OCP(=O)(O)O)noc1-c1ccccc1)C(=O)O (stereo not given) | f |
| CC(C)(C)Cc1onc(OCP(=O)(O)O)c1CC(N)C(=O)O (stereo not given) | f |
| O=C(O)C1Cc2c(OCP(=O)(O)O)noc2CN1 (stereo not given) | f |
| Cc1onc(OCC(=O)O)c1CC(N)C(=O)O (stereo not given) | t |
| CCCCc1onc(OCP(=O)(O)O)c1CC(N)C(=O)O (stereo not given) | t |
| CC(C)(C)c1onc(OCC(=O)O)c1CC(N)C(=O)O (stereo not given) | t |
| CCCCc1onc(OCC(=O)O)c1CC(N)C(=O)O (stereo not given) | f |
| CC(C)(C)Cc1onc(OCC(=O)O)c1CC(N)C(=O)O (stereo not given) | f |
| NC(Cc1cc(OCP(=O)(O)O)no1)C(=O)O (stereo not given) | f |
| NC(Cc1cc(OCC(=O)O)no1)C(=O)O (stereo not given) | f |
| CCCC(CCC)c1onc(OCC(=O)O)c1CC(N)C(=O)O (stereo not given) | f |
| NC(Cc1c(OCC(=O)O)noc1-c1ccccc1)C(=O)O (stereo not given) | f |
| NC(Cc1c(OCC(=O)O)noc1-c1cccs1)C(=O)O (stereo not given) | f |
| Cc1onc(OCP(=O)(O)O)c1CC(N)C(=O)O (stereo not given) | t |
| NC(Cc1c(OCP(=O)(O)O)noc1-c1cccs1)C(=O)O (stereo not given) | f |

----------
- Test Target: Glutamate receptor ionotropic, AMPA (Rattus norvegicus, UniProt P19490+P19491+P19492+P19493)
- Method: Inhibition of AMPA induced electrophysiological responses in rat cortical slices.
- Format: functional

| Smiles Structure | Ki (µM) |
| --- | --- |
| O=C(O)[C@H]1CN(CCCP(=O)(O)O)CCN1 | 1.6 |

----------
IC50 by entry:
- Test Target: Glutamate NMDA receptor
- Method: In vitro inhibition of [3H]CPP binding to NMDA receptor.

| Molecule | Test Target | IC50 |
| --- | --- | --- |
| CCCC(CCC)c1onc(OCC(=O)O)c1CC(N)C(=O)O (stereo unspecified) | Glutamate NMDA receptor | > 100 µM |
| N#Cc1cc2c(cc1[N+](=O)[O-])=NC(=O)C(=O)N=2 | Glutamate NMDA receptor | 25 µM |
| NC(Cc1c(OCC(=O)O)noc1-c1ccccc1)C(=O)O (stereo unspecified) | Glutamate NMDA receptor | > 100 µM |
| CCCCc1onc(OCP(=O)(O)O)c1CC(N)C(=O)O (stereo unspecified) | Glutamate NMDA receptor | > 100 µM |
| NC(Cc1cc(OCC(=O)O)no1)C(=O)O (stereo unspecified) | Glutamate NMDA receptor | > 100 µM |
| CC(C)(C)c1onc(OCP(=O)(O)O)c1CC(N)C(=O)O (stereo unspecified) | Glutamate NMDA receptor | > 100 µM |
| CC(C)(C)c1onc(OCC(=O)O)c1CC(N)C(=O)O (stereo unspecified) | Glutamate NMDA receptor | > 100 µM |
| O=C(O)C1Cc2c(OCP(=O)(O)O)noc2CN1 (stereo unspecified) | Glutamate NMDA receptor | 22 µM |
| CC(C)(C)Cc1onc(OCC(=O)O)c1CC(N)C(=O)O (stereo unspecified) | Glutamate NMDA receptor | > 100 µM |
| Cc1onc(OCP(=O)(O)O)c1CC(N)C(=O)O (stereo unspecified) | Glutamate NMDA receptor | > 100 µM |
| NC(Cc1c(OCP(=O)(O)O)noc1-c1ccccc1)C(=O)O (stereo unspecified) | Glutamate NMDA receptor | > 100 µM |
